These entries and their values trace back to paper PMC5540273.

Each item that follows carries a reported %Inh.
Tested on: SNRK
Conditions: concentration: 1 μM, replicates: in singlicate; n = 1;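 further: KINOMEscan kinase panel screen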
Numbers only; they are read as %.

Worked cases, answers included:
| COMPOUND | EXPERIMENTAL ENDPOINT | UNIT LABEL | OBSERVED RESULT |
| --- | --- | --- | --- |
| CCn1c(-c2ccncc2)nc2cnccc21 [SB-735216] | %Inh | % | 17 |
| CNc1nccc(-c2c(-c3ccc(F)cc3)ncn2C2CCN(C)CC2)n1 [SB-222903] | %Inh | % | 0 |
| COc1cc2c(Nc3cccc(NC(=O)c4ccccc4)c3)ncnc2cc1OCCCN1CCOCC1 [GSK223810] | %Inh | % | 0 |

Look up %Inh: NC(=O)c1sc(-n2cnc3ccccc32)cc1OCc1ccccc1F [GSK1024306] 0

Look up %Inh: Cn1ccc2ncnc(Oc3ccc(NC(=O)Nc4cccnc4)c(Cl)c3)c21 0

Look up %Inh: O=C(Nc1n[nH]c2nc(-c3ccco3)c(Br)cc12)c1ccc(CN2CCCC2)cc1.O=C(O)[C@H](O)[C@@H](O)C(=O)O [SB-742352] 0

Look up %Inh: Cc1cc(N2CCC(NS(=O)(=O)c3ccc(F)cc3)CC2)nc(Nc2cccc(C#N)c2)n1.O=C(O)C(F)(F)F [GSK1653537] 0

Look up %Inh: CCCc1ccc(S(=O)(=O)NC2CCN(c3ccnc(Nc4ccc(OC)cc4)n3)C2)cc1 (stereo not drawn) [GSK1379737] 0

----------
Each item that follows carries a reported %Inh.
Test system: KIT
Settings: concentration: 1 μM, replicates: in singlicate; n = 1
The reply must contain the numeric value and, after it, the unit.

| MOLECULE | %Inh |
| --- | --- |
| O=c1cc(N2CCOCC2)nc2n(Cc3cccc(Cl)c3)ccn12 [GSK2296823] | 11% |

Look up %Inh: COc1ccc(Nc2nccc(N3CCC(NC(=O)c4cccc(NC(C)=O)c4)C3)n2)cc1 (stereo not drawn) [GSK1379732] 7%

Look up %Inh: CN1c2ccc(-c3ccc(C(=O)NCCO)cc3)cc2-c2[nH]ncc2S1(=O)=O 17%

Look up %Inh: CSc1ccc(NC2=C(c3ccccc3Cl)C(=O)NC2=O)cc1 [SB-342411] 25%

Look up %Inh: Cc1ccc(O)cc1Nc1cc(C(F)(F)F)nc2ccc(-c3ccncc3)cc12 [GW630823] 14%

Look up %Inh: COc1ccc(Nc2nccc(N3CCC(NC(=O)Nc4ccc5c(c4)OCO5)C3)n2)cc1 (stereo not drawn) [GSK1379745] 48%

Look up %Inh: NC(=O)c1sc(-n2cnc3ccccc32)cc1OCc1ccccc1F [GSK1024306] 0%

----------
Test system: RIPK2
Conditions: concentration: 1 μM, replicates: in singlicate; n = 1
EXPERIMENTAL ENDPOINT: %Inh

| COMPOUND | %Inh |
| --- | --- |
| CC(C)(C)OC(=O)NC1CCCN(c2cc(-c3ccc4c(N)n[nH]c4c3)nc(N)n2)C1 (stereo not drawn) | 8% |
| C[C@H]1CC[C@@H](C(=O)Nc2ccccc2)CN1c1cc(-c2ccc3c(N)n[nH]c3c2)nc(N)n1 | 0% |
| CSc1ccc(NC2=C(c3ccccc3Cl)C(=O)NC2=O)cc1 | 32% |
| Clc1cc(Nc2ncnc3cc[nH]c23)ccc1OCc1ccccn1 | 27% |
| CN1CCC(n2cnc(-c3ccc(F)cc3)c2-c2ccnc(NC3CCNCC3)n2)CC1 | 0% |

State its %Inh on RIPK2: Nc1n[nH]c2nnc(-c3ccccc3)cc12 17%

----------
Test system: WNK2
Settings: concentration: 1 μM, replicates: in singlicate; n = 1
Each item that follows carries a reported %Inh.
Numbers only; they are read as %.

Worked cases, answers included:
| COMPOUND | TARGET UNDER TEST | %Inh / % |
| --- | --- | --- |
| FC(F)(F)c1ccc(-c2cc(-c3c[nH]nc3-c3ccccn3)ccn2)cc1 [GW599550] | WNK2 | 7 |
| Nc1nccc2scc(-c3ccc4c(c3)CCN4C(=O)Cc3cc(F)ccc3F)c12 [GSK2587663] | WNK2 | 0 |
| COC(=O)c1cccc(NC(=O)NCCNc2ccnc(Nc3ccc(F)cc3)n2)c1 [GSK1379883] | WNK2 | 0 |

Look up %Inh: O=c1cc(N2CCOCC2)nc2n(Cc3cccc(Cl)c3)ccn12 [GSK2296823] 0

----------
Tested on: DAPK3
Details: concentration: 1 μM, replicates: in singlicate; n = 1
EXPERIMENTAL ENDPOINT: %Inh (%)
Numbers only; they are read as %.

| CPD SMILES | %Inh, % |
| --- | --- |
| O=C(CCO)NCCn1ccc2ncnc(Nc3ccc(Oc4cccc(C(F)(F)F)c4)c(Cl)c3)c21 | 0 |
| O=C(c1ccc(-c2cc(-c3c[nH]nc3-c3ccccn3)ccn2)cc1)N1CCCC1 | 85 |
| c1ccc(-c2ccc3c(-c4ccnc(Nc5ccc6c(c5)OCCO6)n4)cnn3n2)cc1 | 0 |
| Cn1ccc2ncnc(Oc3ccc(NC(=O)Nc4cccnc4)c(Cl)c3)c21 | 0 |
| Cc1ccc(O)cc1Nc1cc(C(F)(F)F)nc2ccc(-c3ccncc3)cc12 | 11 |

Look up %Inh: O=c1cc(N2CCOCC2)nc2n(Cc3cccc(Cl)c3)ccn12 7

----------
System: RPS6KA4(Kin.Dom.1-N-terminal)
Conditions: concentration: 1 μM, replicates: in singlicate; n = 1
EXPERIMENTAL ENDPOINT: %Inh
The reply must contain the numeric value and, after it, the unit.

| COMPOUND | TARGET UNDER TEST | %Inh |
| --- | --- | --- |
| Clc1cccc(-c2nc(Nc3ccncc3)c3ccccc3n2)c1 [GW873004] | RPS6KA4(Kin.Dom.1-N-terminal) | 51% |

Look up %Inh: Nc1nc(-c2ccccn2)c(-c2ccnc3ccccc23)s1 [GW548057] 12%

Look up %Inh: Cn1ccc2ncnc(Oc3ccc(NC(=O)Nc4cccnc4)c(Cl)c3)c21 0%

----------
Each item that follows carries a reported %Inh.
System: ERK4
Construct: gene MAPK4
Conditions: concentration: 1 μM, replicates: in singlicate; n = 1
Numbers only; they are read as %.

| COMPOUND | EXPERIMENTAL ENDPOINT | OBSERVED RESULT |
| --- | --- | --- |
| Clc1cccc(-c2nc(Nc3ccncc3)c3ccccc3n2)c1 | %Inh | 0 |
| Cl.Fc1ccccc1COc1ccc(Nc2ncnc3ccc(-c4nnc(C(F)(F)F)o4)cc23)cc1Cl | %Inh | 13 |
| Cc1ccc(NC(=O)c2cccc(C#N)c2)cc1-c1ccc(C(=O)Nc2ccncc2)cc1 | %Inh | 25 |
| O=C(Nc1n[nH]c2nc(-c3ccco3)c(Br)cc12)c1ccc(CN2CCCC2)cc1.O=C(O)[C@H](O)[C@@H](O)C(=O)O | %Inh | 0 |
| CCCc1ccc(S(=O)(=O)NC2CCN(c3ccnc(Nc4ccc(OC)cc4)n3)C2)cc1 (stereo not shown) | %Inh | 17 |
| C[C@H]1CC[C@@H](C(=O)Nc2ccccc2)CN1c1cc(-c2ccc3c(N)n[nH]c3c2)nc(N)n1 | %Inh | 29 |
| CCc1nc(-c2cccc(C)c2)c(-c2ccnc(NC(=O)c3ccccc3)c2)s1 | %Inh | 2 |
| CCc1nc(-c2cccc(N(C)S(=O)(=O)c3ccccc3)c2)c(-c2ccnc(Nc3ccc(N4CCN(C(C)=O)CC4)nc3)n2)s1 | %Inh | 18 |

Look up %Inh: COc1ccc(-c2oc3ncnc(N)c3c2-c2ccc(OC)cc2)cc1 27

Look up %Inh: Cc1ccc(C)c(NC(=O)NCCNc2ccnc(Nc3ccc(F)cc3)n2)c1 17

----------
Test system: SYK
Conditions: concentration: 1 μM, replicates: in singlicate; n = 1
EXPERIMENTAL ENDPOINT: %Inh
The reply must contain the numeric value and, after it, the unit.

Worked cases, answers included:
| COMPOUND | EXPERIMENTAL ENDPOINT | OBSERVED RESULT |
| --- | --- | --- |
| CC(=O)Nc1n[nH]c2ncc(-c3ccccc3)cc12 | %Inh | 2% |
| CC(C)(C)c1ccc(-n2cnc3c(N)ncnc32)cc1 | %Inh | 0% |
| FC(F)(F)c1cc(Nc2nccc(-c3c(-c4ccc(Cl)cc4)nn4ncccc34)n2)ccc1Cl | %Inh | 2% |

State its %Inh on SYK: Cn1ccc2ncnc(Oc3ccc(NC(=O)Nc4cccnc4)c(Cl)c3)c21 0%

State its %Inh on SYK: COc1ccc(Nc2nccc(N3CCC(NC(=O)c4cccc(NC(C)=O)c4)C3)n2)cc1 (stereo not shown) 18%

State its %Inh on SYK: Clc1ccc(-c2cc(-c3c[nH]nc3-c3ccccn3)ccn2)cc1 22%

State its %Inh on SYK: O=C(Nc1n[nH]c2nc(-c3ccco3)c(Br)cc12)c1ccc(CN2CCCC2)cc1.O=C(O)[C@H](O)[C@@H](O)C(=O)O 10%

State its %Inh on SYK: CS(=O)(=O)CCNCc1ccc(-c2ccc3ncnc(Nc4ccc(OCc5ccccc5)c(Cl)c4)c3c2)o1.Cl 0%

State its %Inh on SYK: Nc1nc(-c2ccc3c(N)n[nH]c3c2)cc(N2CCCCC2)n1 8%

State its %Inh on SYK: Cc1ccc(C)c(NC(=O)NCCNc2ccnc(Nc3ccc(F)cc3)n2)c1 17%
